The reported measurements were obtained from PubChem BioAssay AID1259407.

# System: CCRIS mutagenicity, Ames/micronucleus/aberration tests
# assay-explanation: CCRIS mutagenicity studies
# condition-set: Test System: AMES SALMONELLA TYPHIMURIUM; Strain/Indicator: TA1537; Metabolic Activation: NONE; Method: STANDARD PLATE
Calls of active or inactive are those of the source. How the calls were made is not given here.
Classes used: active, inactive

>>> class("CC1(C)C(=O)[C@]2(C)CC[C@H]1C2")
"inactive"
>>> class("CC(=O)n1ncc(Cl)c(Cl)c1=O")
"inactive"
>>> class("O=[Si]=O")
"inactive"
>>> class("Cc1nnc(NS(=O)(=O)c2ccc(N)cc2)s1")
"inactive"
>>> class("Nc1ccc2[nH]c3ccccc3c2c1[N+](=O)[O-]")
"active"
>>> class("C=CCc1ccc(O)c(OC)c1")
"inactive"
>>> class("O=C(O)c1ccccn1")
"inactive"
>>> class("C=C(C)C(=O)OCC(CC)(COC(=O)C(=C)C)COC(=O)C(=C)C")
"inactive"
>>> class("Cc1ccc2c(c1Nc1ccccc1)C(=O)c1ccccc1C2=O")
"inactive"
>>> class("CCOP(=O)(OCC)O/C(=C/Br)c1ccc(Cl)cc1Cl")
"inactive"
>>> class("CC1=CC(=O)CC(C)(C)C1")
"inactive"
>>> class("C1CCC2OCCOCCOC3CCCCC3OCCOCCOC2C1 (centres undefined)")
"inactive"
>>> class("CC1=CC(=O)c2ccccc2C1=O")
"inactive"
>>> class("Cc1cc(O)c2c(c1)C(=O)c1c(O)c(O)cc(O)c1C2=O")
"inactive"
